Assay Info: FT-Raman quantitation of 5-/6-methoxy isomers in omeprazole API, partial least squares
Assay type: physicochemical
Condition Summary: standards
Result Type: % 6-isomer (%)
Numbers only; they are read as %.

Asked: Supply reported % 6-isomer belonging to this molecule: COc1ccc2nc([S+]([O-])Cc3ncc(C)c(OC)c3C)[nH]c2c1 (stereo not shown) [Example 1a]
Given back: 100.000

Asked: Supply reported % 6-isomer belonging to this molecule: COc1ccc2[nH]c([S+]([O-])Cc3ncc(C)c(OC)c3C)nc2c1 (stereo not shown) [Example 44]
Given back: 58.742

Asked: Supply reported % 6-isomer belonging to this molecule: COc1ccc2[nH]c([S+]([O-])Cc3ncc(C)c(OC)c3C)nc2c1 (stereo not shown) [USP]
Given back: 92.750

Asked: Supply reported % 6-isomer belonging to this molecule: COc1ccc2[nH]c([S+]([O-])Cc3ncc(C)c(OC)c3C)nc2c1 (stereo not shown) [Example 36]
Given back: 83.995

Asked: Supply reported % 6-isomer belonging to this molecule: COc1ccc2[nH]c([S+]([O-])Cc3ncc(C)c(OC)c3C)nc2c1 (stereo not shown) [Example 41]
Given back: 83.587

Asked: Supply reported % 6-isomer belonging to this molecule: COc1ccc2[nH]c([S+]([O-])Cc3ncc(C)c(OC)c3C)nc2c1 (stereo not shown) [Example 37]
Given back: 87.754

Asked: Supply reported % 6-isomer belonging to this molecule: COc1ccc2nc([S+]([O-])Cc3ncc(C)c(OC)c3C)[nH]c2c1 (stereo not shown) [Example 1]
Given back: 94.125
